Test: NCI Yeast Anticancer Drug Screen. Data for the sgs1 mgt1 strain (AID 161);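 further: 0% = growth of cultures given vehicle only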
Conditions: S. cerevisiae sgs1 mgt1 strain, at 50.0 µM, hits give high values
Experimental: Growth inhibition of yeast strains with defined genetic alterations is measured as a screen for potential anti-cancer activity. Selected strains with alterations in DNA damage repair or cell cycle control were exposed to compounds and growth inhibition was measured relative to vehicle treated controls. The strain used in this assay is sgs1 mgt1
The panel holds about 79,000 compounds, 15% with a hit somewhere; the sample as a whole holds those more often.
RECORDED ENDPOINT: growth inhibition (%)
Report the figure in % without appending any unit label.

Value of growth inhibition reported for the molecule `COC(=O)C(=[N+]=[N-])C(=O)c1ccccc1[N+](=O)[O-]` is 15.8

Quick note, growth inhibition for `Cn1c(-c2ccc(-c3cc(-c4cccs4)c(-c4cccs4)n3C)cc2)cc(-c2cccs2)c1-c1cccs1` landed at 14.8

Looking up Cc1cccc2c1-c1c(C)cccc1C(Cl)S(=O)(=O)C2 (stereo not given) , I found its growth inhibition recorded as -9.05

Lab book: growth inhibition of `CCCCCCCCCCCCCCCCCC[N+](C)(C)Cc1c(Cl)c(Cl)c(Cl)c(Cl)c1Cl` noted as 20.4

// C=CCNC(=O)N(CCC)CCCCC(NC(C)=O)C(=O)NCc1ccccc1 (stereo not given) : growth inhibition value = -8.4

###

For each record, write down the corresponding growth inhibition.
Test: NCI Yeast Anticancer Drug Screen. Data for the mlh1 rad18 strain (AID 175)
Conditions: S. cerevisiae mlh1 rad18 strain growth inhibition; at 50.0 µM; hits give high values
The panel holds about 79,000 compounds, 15% with a hit somewhere; the sample as a whole holds those more often.
The reply should be a number in %, with the unit left off.

The reported growth inhibition of the compound `C[CH2][Sn]([CH2]C)([O]C(=O)c1ccc(F)cc1)[O][Sn]([CH2]C)([CH2]C)[O]C(=O)c1ccc(F)cc1` was -9.05

CC(=O)NC(CCCN(Cc1ccccc1)C(=O)NCCCl)C(=O)NCc1ccccc1 (stereo not given) has a reported growth inhibition of -18.6

get_value(item= `CCOc1c(N=Nc2ccccc2OC)c(-c2ccccc2)nn1C(=S)S` , readout=growth inhibition) returns 18.9

// `Nc1nnc2nc(CC(=O)c3ccccc3[N+](=O)[O-])c(CC(=O)c3ccccc3[N+](=O)[O-])nn12` : growth inhibition value = 8.8

So, `BrC/C(=N\N1CCCCC1)c1ccc(Br)cc1` ? Its growth inhibition was 14

###

Assay: NCI Yeast Anticancer Drug Screen. Data for the cln2 rad14 strain (AID 165);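 further: 0% = growth equal to vehicle treated cultures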
Settings: S. cerevisiae cln2 rad14 strain, at 50.0 µM
About 79,000 compounds went through this panel and 15% of them were active in at least one assay; those are over-represented in the sample as a whole. The source made the active and inactive calls. Rule as the data show it: active = growth inhibition above about 70%; inactive = the rest.
Write down the outcome that applies. Available outcomes: class 1 for active, class 0 for inactive

// outcome(item) with item = `O=C(O)CC/C(=N\Nc1ccc([N+](=O)[O-])cc1[N+](=O)[O-])c1ccccc1`
class 0

Hello, I am checking results. What call was entered for `Cn1ncc2c(=S)[nH]c(=O)[nH]c21` ?
class 0

For `COc1ccc([C@@]23Oc4cc(OC)cc(OC)c4[C@]2(O)[C@H](O)[C@H](C(=O)N(C)C)[C@H]3c2ccccc2)cc1` , what call appears in the results of this test?
class 1

What call does the record list for `N[C@@H](Cc1ccccc1)C(=O)NCCNC(=O)[C@@H](N)Cc1ccccc1` ?
class 0

What is the recorded call for this compound in the test? `Nc1cccc2c(S(=O)(=O)O)cccc12`
class 0

Field: outcome | Entry: `Nc1ccc(-c2csc(Nc3ccnc4cc(Cl)ccc34)n2)cc1`
class 0

Lab log entry: COC1/C=C\OC2(C)Oc3c(C)c(O)c4c(O)c(c(CN(C)C)c(O)c4c3C2=O)NC(=O)/C(C)=C\C=C/C(C)C(O)C(C)C(O)C(C)C(OC(C)=O)C1C (stereo not given) — outcome as called in the assay?
class 0

What classification did `c1ccc(-c2nc3ccccc3n2CCc2ccncc2)nc1` end up with in this test?
class 0

Short answer needed: outcome of this test for CCCCCCN(CCCCCC)CC(O)c1c(Cl)ccc2ccccc12 (stereo not given) ?
class 1

Which outcome was assigned to `CC1=N/C(=C/c2ccccc2)C(=O)O1` in this test?
class 0

###

Please provide measured growth inhibition for the entries that follow.
Experiment: NCI Yeast Anticancer Drug Screen. Data for the cln2 rad14 strain (AID 165);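 further: 0% = growth equal to vehicle treated cultures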
Settings: S. cerevisiae cln2 rad14 strain, at 50.0 µM, hits give high values
This is part of a sample that, as a whole, favours compounds with a hit. Of some 79,000 tested, about 15% had one in any assay.
Just the number in %, nothing appended.

Reported growth inhibition for CN(C)CC(O)c1ccc(Cl)c2ccccc12 (stereo not drawn) was -30.1

Item: `Brc1ccccc1C(Nc1nncs1)Nc1nncs1` | growth inhibition: -3.1

Lab note: CC(=O)NC(CCCN(Cc1ccccc1)C(=O)NCCCl)C(=O)NCc1ccccc1 (stereo not drawn) gave growth inhibition of 5.7

Kindly note the recorded growth inhibition for `COc1ccc(-c2cc(=O)c3c(O)cc(O)cc3o2)cc1Oc1ccc(-c2cc(=O)c3c(O)cc(O)cc3o2)cc1` , which is 2.35

Looking up `Nc1nnc(-c2cccc(-c3nnc(N)o3)c2)o1` , I see its growth inhibition listed as -41.4

Lab book: growth inhibition of CN(C)c1nc(N/N=C\C(O)C(O)C(O)C(O)CO)nc(N(C)C)n1 (stereo not drawn) noted as 1.15

Measured growth inhibition of `CNc1nc(N)nc(N)c1N1CCN(c2ccc(C(=O)O)cc2)CC1` : 9.95

Memo: `CCCCCCCCCCCCSCCO` , reported growth inhibition: 31.4

// `CCC(CC)C1CC[N-]CC1.CCC(CC)C1CC[N-]CC1.CCC(CC)C1CC[N-]CC1.CCC(CC)C1CC[N-]CC1.N#C[S-].N#C[S-].[Co]` : growth inhibition value = 13.8

Noted for `Cc1ccc(OCC(=O)O)cc1C` : its growth inhibition reads 0.25

Measured growth inhibition, `COC(=O)c1cc([O-])c2sc(C)c(C)[n+]2n1` : 35.6

Item: O=C1c2ccccc2C(=O)N1CC(O)COCc1ccccc1 (stereo not drawn) | growth inhibition: -15.9

Form field growth inhibition, entry `NC(Cc1ccccc1)(C(=O)O)C(=O)O` : -31.8

Briefly, growth inhibition measured for `Cc1ccc(CO)cc1C` : -6.55

Entry `CCOc1ncc(C(=O)c2ccc(C)cc2)c(OCC)n1` — recorded growth inhibition = -58.9

Lab note: measured growth inhibition of C=CC1CCC[N+]1(CC(=O)OCC)Cc1ccccc1 (stereo not drawn) was 3.7

What the record says about `O=C(C[n+]1cc(Br)cc(Br)c1)c1ccc(Cl)cc1` : growth inhibition is -13.8

For `Cc1ccc(S(=O)(=O)O)c2c([N+](=O)[O-])cccc12` the compound record lists growth inhibition as -32.4

growth inhibition reported for this compound N#CC1(OC2OC(CO)C(O)C(O)C2O)C=CCC1 (stereo not drawn) : -7.45

Per the record, `CCOC(=O)c1nc2cc(C(F)(F)F)ccc2nc1Nc1ccc(OC)c(OC)c1` has growth inhibition of -12.4

get_value(item= `Cc1ccc(S(=O)(=O)N(CCO)CCCO)cc1` , readout=growth inhibition) returns 5.1

For record `CCOC(=O)C1=C(C(C)=O)C(c2cccc([N+](=O)[O-])c2)C(C(C)=O)=C(C(=O)OCC)N1` the listed growth inhibition is -2.8

Kindly note the recorded growth inhibition for CC1CN=C(N(C(=O)Nc2ccc(Cl)cc2)c2cccc(Cl)c2)S1 (stereo not drawn) , which is -8.75

Form field growth inhibition, entry `CCN(CC)c1ccc2c(C)cc(=O)oc2c1` : 3.8

Measured growth inhibition, Cc1cccc([B-]23OCC[N+]2(CNC(=O)c2ccccc2O)CCO3)c1 (stereo not drawn) : -11.6

The compound listed as `CCCCOC(=S)Nc1ccc(S(=O)(=O)c2ccc(NC(=S)OCCCC)cc2)cc1` shows growth inhibition equal to 9.35

Reported growth inhibition ( CNCC(OC(C)C)c1ccc(O)c(O)c1 (stereo not drawn) ) = -36.4

Looking up CC(C)(C)SC1C(O)C(CO)OC1n1ccc(Nc2ccccc2)nc1=O (stereo not drawn) , I found its growth inhibition recorded as -15.8

// recorded growth inhibition for `O=C1CCN2C(=O)CCN12` : 14.8

Consider Cc1ccc(S(=O)(=O)N/N=C2\CCC3CC3CC\C2=N/NS(=O)(=O)c2ccc(C)cc2)cc1 (stereo not drawn) . Its measured growth inhibition is -9.1

For this compound ( CN(C)CC1CCCC/C1=N/O (stereo not drawn) ), measured growth inhibition is -17.5

Looking up CCOc1c(OC)cc(C2c3cc4c(c(OCC)c3CC3COC(=O)C32)OCO4)cc1OC (stereo not drawn) , I see its growth inhibition listed as 28.1

growth inhibition reading for NC(=O)NC(NC(=O)NC(NC(N)=O)c1ccco1)c1ccco1 (stereo not drawn) : 6.1

Sample CCOC(=O)C(CC)(C(=O)OCC)C(C)CC (stereo not drawn) ; growth inhibition observed: -5.9

Record summary for `CC(=C(C#N)C#N)c1ccccc1` : reported growth inhibition = 6.45

growth inhibition recorded for this compound, `N#CS[C@@H]1CCC[C@H]1O` , is -18

The recorded growth inhibition for OC(Cc1ccccc1)CN1CCN(c2ccccc2)CC1 (stereo not drawn) is 17.1

Input `CCO/C([O-])=C(\C=N\S(=O)(=O)c1ccc(C)cc1)[n+]1ccc(C)cc1` . Output growth inhibition: -17.1

Lab note: measured growth inhibition of `Nc1c([N+](=O)[O-])cc(F)cc1C(F)(F)F` was -14.9

So, CCCCCCCCCCCCNC(C)C1=C(O)c2ccccc2C(=O)C1=O (stereo not drawn) ? Its growth inhibition was 25.9

In plain terms, `COc1ccc(/C=C2/C(=O)N=C(NC(C)=O)N2C)cc1OC` has a documented growth inhibition of -2.1

In plain terms, `O=C(O)CO` has a documented growth inhibition of -1.25

The compound identified as O=C(/C=C/c1ccccc1)NCC(O)CO (stereo not drawn) registered its growth inhibition at -0.3

Noted for CC(=O)C1C(=O)C(=O)N(c2ccccc2N2C(=O)C(=O)C(C(C)=O)C2=O)C1=O (stereo not drawn) : its growth inhibition reads 17.8

For record `CC(=O)CC(=O)NCCCN1CCCCC1` the listed growth inhibition is -5.1

growth inhibition reading for CCN1C(=O)CC(SCCSC2CC(=O)N(CC)C2=O)C1=O (stereo not drawn) : -6.55

Note to self: growth inhibition recorded for `CC(=O)Nc1c(Cl)c(Cl)c2c(c1Cl)Cc1cc([N+](=O)[O-])ccc1-2` was -9.1

GET /value?item= `C[N+](C)(CCO)CCN1c2ccccc2Sc2ccccc21` &field=growth inhibition returns -23.6
